Read-out: Monocyte Chemoattractant Protein-1 (MCP1), CCL2 (gene 6347)
experiment description: BSK_4H_MCP1: BioMAP Diversity Plus: 4H Assay for Monocyte Chemoattractant Protein-1 (MCP1) Biomarker Activity (AID 2283018)
run parameters: primary human endothelial cells (HUVEC); actives raise or lower the signal
Calls of active or inactive are those of the source. The calls were made as follows: active = hit-call score of the fitted dose curve at least 0.9, where 1 is the maximum; inactive = score below 0.9.
Return exactly one item of active, inactive

Query block: What is the recorded call for this molecule in the test? `CCN(CC)c1ccc2c(c1)Oc1cc(N(CC)CC)ccc1C21OC(=O)c2ccccc21`
Result block: inactive

Query block: Which outcome was assigned to `NC(=O)C(F)(F)C(F)(F)C(F)(F)C(F)F` in this test?
Result block: inactive

Query block: Identify the outcome logged in this assay for the molecule shown: `O=C(Cl)C(F)(F)C(F)(F)C(F)(F)C(F)(F)C(F)(F)C(F)(F)F`
Result block: inactive

Query block: Tell me the recorded outcome of this test for `Cc1cnccn1` .
Result block: inactive

Query block: Dear colleague, could you share the recorded outcome for `NCC(F)(F)C(F)(F)C(F)(F)C(F)(F)C(F)(F)C(F)(F)C(F)(F)C(F)(F)F` when you have a moment?
Result block: inactive

Query block: Which outcome was assigned to `O=C=Nc1cccc2c(N=C=O)cccc12` in this test?
Result block: active

Query block: Which outcome was assigned to `CC(C)(C)c1cc(CCC(=O)NCCCCCCNC(=O)CCc2cc(C(C)(C)C)c(O)c(C(C)(C)C)c2)cc(C(C)(C)C)c1O` in this test?
Result block: inactive

Query block: How did this test come out for `OCC(F)(F)C(F)(F)C(F)(F)C(F)(F)C(F)(F)C(F)(F)C(F)(F)C(F)(F)CO` ?
Result block: inactive

Query block: Just curious, what result did `O=C(O)CCC(F)(F)C(F)(F)C(F)(F)F` get here?
Result block: inactive

Query block: Tell me the recorded outcome of this test for `CCN(CC)c1ccc(C=O)cc1` .
Result block: inactive

Query block: # lookup: test call for `O=C(O)C(F)(F)C(F)(F)C(F)(F)OC(F)(C(F)(F)F)C(F)(F)F`
Result block: inactive

Query block: // return assay outcome for `CCN(CC)c1ccc(C=O)c(O)c1`
Result block: inactive

Query block: Which outcome was entered for the molecule `CO[Si](C)(CCC(F)(F)C(F)(F)C(F)(F)C(F)(F)C(F)(F)C(F)(F)F)OC` in this test?
Result block: inactive

Query block: Just curious, what result did `O=C1C=CC(=O)N1c1ccc(Cc2ccc(N3C(=O)C=CC3=O)cc2)cc1` get here?
Result block: active

Query block: Write down the call the test reported for this molecule. Item: `OC(O)C(F)(F)C(F)(F)F`
Result block: inactive

Query block: Recorded test call requested for `O=C(O)C(F)(F)OC(F)(F)C(F)(F)OC(F)(F)C(F)(F)OC(F)(F)F`
Result block: inactive

Query block: Hi team, can someone confirm the assay call for COC(F)(C(F)F)C(F)(F)F (stereo not drawn) ?
Result block: inactive

Query block: Short answer needed: outcome of this test for `CNS(=O)(=O)C(F)(F)C(F)(F)C(F)(F)C(F)(F)C(F)(F)C(F)(F)C(F)(F)C(F)(F)F` ?
Result block: inactive

====

experiment description: CCTE_Harrill_HTTr_Viability_MCF7: CCTE's 6-hour Cell Viability Assessment for the High-Throughput Transcriptomics (HTTr) Platform, in MCF-7 cells cultured in DMEM + 10% fetal bovine serum, Harrill Lab (AID 2284010)
The source made the active and inactive calls. The calls were made as follows: active = hit-call score of the fitted dose curve at least 0.9, where 1 is the maximum; inactive = score below 0.9.
quantity kind: outcome

compound | outcome
CCC(Cc1c(I)cc(I)c(N)c1I)C(=O)O (configuration not stated) | inactive
CSc1ccc(O)cc1C | inactive
O=S(=O)(O)c1ccc(Cl)cc1 | inactive
C[C@]12CC[C@H]3C(=CCc4cc(O)ccc43)[C@@H]1CCC2=O | inactive
Cc1cnccn1 | inactive

Query block: Any idea what outcome was measured for `CCN=C1C=CC(=C(c2ccc(N(CC)CC)cc2)c2ccc(N(CC)CC)cc2)c2ccccc21` ?
Result block: inactive

Query block: I'd like to know its outcome. The compound in question is `CCCCCCCCCc1ccc(OCCO)cc1`
Result block: inactive
